Documented growth across a set of compounds
Test system: 786-0 renal
Assay: NCI-60 one-dose screen, 48 h (100 = growth as untreated, 0 = no growth, -100 = all killed)
Conditions: 10 µM unless noted
This is part of a sample that, as a whole, favours compounds with a hit. Of some 83,000 tested, about 20% had one in any assay.
Quantity name: growth (%)

- CCCOCc1cn[nH]n1: 102
- O=S1(=O)c2ccccc2Oc2ccccc21: 99.9
- Cc1ccc(C)c(CCO)c1: 97.2
- N#C/C(=C\c1ccc2c(c1)OCO2)c1ccccc1: 95.5
- CC(=O)Oc1c(Cl)cccc1-c1ccccc1: 104
- CCOC(C=O)OCC: 99.7
- S=c1nc2[nH]c3ccccc3c2n[nH]1: 109
- CC(=O)OCC1CCC(COC(C)=O)CC1 (configuration not stated): 95.3
- CC(C)c1ncc([N+](=O)[O-])n1C: 108
- C[C@H](CCC[C@H](C)OS(=O)(=O)c1ccccc1)OS(=O)(=O)c1ccccc1: 107
- CC(C)N1CC(=O)N2CSCC2C1=O (configuration not stated): 107
- O=C(O)c1ccc([N+](=O)[O-])cc1S(=O)(=O)O: 102
- O=C(O)CC1=CCCCC1: 95.2
- NC(CO)(CO)c1ccccc1: 106
- c1ccc(Oc2c3ccccc3nc3ccccc23)cc1: 1.82
- CC(=O)C1C(=O)C(=O)N(c2cccc([N+](=O)[O-])c2)C1=O (configuration not stated): 96.8
- Cc1cc(C(=O)c2ccccc2)cc(C)c1O: 100
- Cn1c2ccccc2c2nnc(NCCCCO)nc21: 98.8
- O=C(O)Cc1ccc(Cl)cc1: 93.7
- Cc1nc(C)c(C(=O)O)cc1C(=O)O: 112
- COC1OC(COC(C)=O)C(OC(C)=O)C(OC(C)=O)C1OC(C)=O (configuration not stated): 98.8
- C=CC(C)C(C)(C)O (configuration not stated): 89.4
- O=[N+]([O-])c1c(O)c(CNCCCO)cc(CNCCCO)c1O: 118
- C#CC(O)c1ccccc1 (configuration not stated): 95.6
- OC1Cc2ccccc2C1: 98.7
- CC(C)N(C(=O)c1ccccc1)C(C)C: 106
- Oc1cc(O)c2c(c1)O[C@H](c1ccc(O)c(O)c1)[C@@H](O)C2: 106
- C=CCC(OC(C)=O)c1ccc(OC)c(OC)c1 (configuration not stated): 115
- CCOC(=O)CNC: 101
- CSc1nc2[nH]ncc2c(=O)[nH]1: 101
- CSCCC(NC(=O)C(Cl)Cl)C(=O)O (configuration not stated): 101
- S=C(NCc1ccccc1)N1CCC(CCCC2CCN(C(=S)NCc3ccccc3)CC2)CC1: 101
- CC(C)OCC(CCl)OC(=O)Nc1ccccc1 (configuration not stated): 100
- CN(C)c1ccc(/C=C/C(=O)c2ccc(NC(N)=O)cc2)cc1: 97.1
- CCOC(=O)c1ccc(C(C)(C)C)cc1: 104
- CCOC(=O)N[C@H]1CCc2cc(OC)c(OC)c(OC)c2-c2ccc(SC)c(=O)cc21: 15.6
- O=C1C=C[C@H](O)[C@@]2(CO)O[C@@H]12: 102
- O=C(c1ccccc1O)N1CCCC1: 95.9
- COC(=O)C1(CC(C)=O)NC(=S)NC(=O)C1C#N (configuration not stated): 105
- CCCCCCCCCCCCCCCCOc1ccccc1NC(=O)CC(C)=O: 59.8
- NC(=S)N/N=C/c1ccc(OC(=O)COc2ccc(Cl)cc2)cn1: 32.5
- ClCc1cccc2c(CCl)cccc12: -74.3
- CCC(=O)Oc1ccc2ccccc2c1: 96.9
- CCOC(=O)/C(C)=C\c1ccc(OC)c(OC)c1: 95.5
- Cc1cc(=O)n(Nc2ccccc2)c(O)c1C#N: 101
- CCCCN(C=S)CCCC: 101
- COc1nc2ccccc2s1: 104
